These measurements were taken from patent US10065972B2.

Molecular target: human recombinant KAT-II (Homo sapiens (Human), UniProt Q8N5Z0)
Sequence (Q8N5Z0 30-425): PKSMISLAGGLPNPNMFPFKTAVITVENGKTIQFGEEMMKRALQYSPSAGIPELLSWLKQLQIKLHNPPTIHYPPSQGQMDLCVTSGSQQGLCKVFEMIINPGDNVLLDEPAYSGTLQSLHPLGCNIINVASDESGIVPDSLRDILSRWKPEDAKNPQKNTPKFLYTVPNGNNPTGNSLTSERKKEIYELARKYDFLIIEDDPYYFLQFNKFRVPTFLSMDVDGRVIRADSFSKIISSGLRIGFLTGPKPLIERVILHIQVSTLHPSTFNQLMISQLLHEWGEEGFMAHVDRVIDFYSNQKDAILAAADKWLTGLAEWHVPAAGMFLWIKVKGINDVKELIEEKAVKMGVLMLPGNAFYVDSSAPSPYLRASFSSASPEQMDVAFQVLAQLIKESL
Assay: KAT-II inhibitory test
Format: biochemical
Conditions: 3.0 μmol/L kynurenine, 37° C., 1 hr, pH 8.0; kynurenic acid quantified by HPLC
Result type: IC50 (nM)
Express your answer in nM, writing the number without its unit.

Worked set:
Cn1c(-c2ncccc2F)nc2sc(N3CCC[C@@H]3C(=O)NCc3ccccc3)nc2c1=O :: 26
Cc1cccc(OC(=O)N2CCC[C@@H]2c2nc3c(=O)n(C)c(C4CCOCC4)nc3s2)c1 :: 18
CCCc1cc(=O)n2nc(N3CCCC[C@@H]3C(=O)NCc3ccccc3)sc2n1 :: 970

INPUT: Specify reported IC50 for the compound shown: Cc1nc2sc(N3CCC[C@@H]3C(=O)NCc3ccccc3)nn2c(=O)c1C(C)C
OUTPUT: 58
